system: Human alphaherpesvirus 2; test: Antiviral activity against Herpes Simplex Virus-2(196); type: functional
Parameter: MIC50. Scope: all listed entries.

Observe how each entry below is paired with its result.
CCc1cn([C@H]2C[C@H](O)[C@@H](CO)O2)c(=O)[nH]c1=O 2 µg/mL
CCCCCCCCc1cn([C@H]2C[C@H](O)[C@@H](CO)O2)c(=O)[nH]c1=O > 100 µg/mL
CCCCCCCCc1cn([C@H]2C[C@@H]3OP(=O)(O)OC[C@H]3O2)c(=O)[nH]c1=O.N > 200 µg/mL
O=c1[nH]c(=O)n([C@H]2C[C@H](O)[C@@H](CO)O2)cc1/C=C/Br 100 µg/mL

Form: item `CCCCc1cn([C@H]2C[C@@H]3OP(=O)(O)OC[C@H]3O2)c(=O)[nH]c1=O.N` ; test system Human alphaherpesvirus 2; MIC50: > 400 µg/mL

Value sought: MIC50, system Human alphaherpesvirus 2, item `CCCc1cn([C@H]2C[C@@H]3OP(=O)(O)OC[C@H]3O2)c(=O)[nH]c1=O.N` . Result: > 400 µg/mL

Reading of MIC50 for `CCCCCc1cn([C@H]2C[C@@H]3OP(=O)(O)OC[C@H]3O2)c(=O)[nH]c1=O.N` with Human alphaherpesvirus 2: > 400 µg/mL
